Listed here: molecules with reported IC50 for UniProt P00749.

| STRUCTURE_AS_SMILES | SYSTEM | IC50 |
| --- | --- | --- |
| CCCCCCCCNC(=O)[C@H](Cc1ccc(O)cc1)NC(=O)[C@H]1CC[C@H](CN)CC1 | UniProt P00749 | 62 µM |
| CCCCCCCCNC(=O)[C@H](Cc1ccc(OCc2ccc3ccccc3n2)cc1)NC(=O)[C@H]1CC[C@H](CN)CC1 | UniProt P00749 | 77 µM |
| CCCCCCCCNC(=O)[C@H](Cc1ccc(OCc2ccccc2C(F)(F)F)cc1)NC(=O)[C@H]1CC[C@H](CN)CC1 | UniProt P00749 | > 100 µM |
| CCCCCCCCNC(=O)[C@H](Cc1ccc(OC(C)(C)C)cc1)NC(=O)[C@H]1CC[C@H](CN)CC1 | UniProt P00749 | > 100 µM |
| CCCCCCCCNC(=O)[C@H](Cc1ccc(OCc2ccc(C(=O)OCC)cc2)cc1)NC(=O)[C@H]1CC[C@H](CN)CC1 | UniProt P00749 | > 200 µM |
| CCCCCCCCNC(=O)[C@H](Cc1ccc(OCc2cccc(OCc3ccncc3)c2)cc1)NC(=O)[C@H]1CC[C@H](CN)CC1 | UniProt P00749 | > 50 µM |
| CCCCCCCCNC(=O)[C@H](Cc1ccc(OCc2cccc3cccnc23)cc1)NC(=O)[C@H]1CC[C@H](CN)CC1 | UniProt P00749 | > 100 µM |
| CCCCCCCCNC(=O)[C@H](Cc1ccc(OCc2ccccc2)cc1)NC(=O)[C@H]1CC[C@H](CN)CC1 | UniProt P00749 | > 100 µM |
| CCCCCCCCNC(=O)[C@H](Cc1ccc(OCc2cccc([N+](=O)[O-])c2)cc1)NC(=O)[C@H]1CC[C@H](CN)CC1 | UniProt P00749 | > 100 µM |

Cited source for all entries: ChEMBL document CHEMBL3751846
